Reference source: paper PMC5054527

systemUnderTest: r-N35S rURAT1 point mutant (Rattus norvegicus, UniProt Q3ZAV1, N35S)
Construct: expressed in transfected cells; host or cells: HEK-293T
Sequence (Q3ZAV1 1-553 N35S): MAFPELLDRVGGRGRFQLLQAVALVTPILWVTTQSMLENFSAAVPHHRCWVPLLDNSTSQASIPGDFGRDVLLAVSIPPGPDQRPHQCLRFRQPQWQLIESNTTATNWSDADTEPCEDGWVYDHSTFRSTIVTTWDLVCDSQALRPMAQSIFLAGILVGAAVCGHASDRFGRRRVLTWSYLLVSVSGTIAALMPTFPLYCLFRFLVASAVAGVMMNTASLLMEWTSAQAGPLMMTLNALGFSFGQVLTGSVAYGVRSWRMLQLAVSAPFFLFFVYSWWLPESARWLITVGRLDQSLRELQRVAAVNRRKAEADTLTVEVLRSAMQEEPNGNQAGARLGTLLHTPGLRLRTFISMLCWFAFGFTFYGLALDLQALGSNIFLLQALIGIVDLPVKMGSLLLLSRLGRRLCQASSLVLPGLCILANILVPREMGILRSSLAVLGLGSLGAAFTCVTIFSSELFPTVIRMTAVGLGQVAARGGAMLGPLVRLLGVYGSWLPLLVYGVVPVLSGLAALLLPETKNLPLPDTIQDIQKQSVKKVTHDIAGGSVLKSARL
assayExplanation: URAT1 uric acid transport activity assay
Type: cell-based
conditionLabel: r-N35S; HEPES pH 7.3; 100 μM 14C-uric acid; read-out: IC50 (uric acid transport)
endpointName: pIC50
Reminder that pIC50 means the negative base-10 logarithm of the concentration expressed in mol/L.

For record O=C1C(CC[S+]([O-])c2ccccc2)C(=O)N(c2ccccc2)N1c1ccccc1 (stereo not shown) [sulfinpyrazone] the listed pIC50 is 3.72

* * *

systemUnderTest: r-h TM1-N URAT1 chimera (Rattus norvegicus, UniProt Q3ZAV1, A21T/L18V/T26V/V22M/V25M)
Sequence (Q3ZAV1 1-553 L18V/A21T/V22M/V25M/T26V): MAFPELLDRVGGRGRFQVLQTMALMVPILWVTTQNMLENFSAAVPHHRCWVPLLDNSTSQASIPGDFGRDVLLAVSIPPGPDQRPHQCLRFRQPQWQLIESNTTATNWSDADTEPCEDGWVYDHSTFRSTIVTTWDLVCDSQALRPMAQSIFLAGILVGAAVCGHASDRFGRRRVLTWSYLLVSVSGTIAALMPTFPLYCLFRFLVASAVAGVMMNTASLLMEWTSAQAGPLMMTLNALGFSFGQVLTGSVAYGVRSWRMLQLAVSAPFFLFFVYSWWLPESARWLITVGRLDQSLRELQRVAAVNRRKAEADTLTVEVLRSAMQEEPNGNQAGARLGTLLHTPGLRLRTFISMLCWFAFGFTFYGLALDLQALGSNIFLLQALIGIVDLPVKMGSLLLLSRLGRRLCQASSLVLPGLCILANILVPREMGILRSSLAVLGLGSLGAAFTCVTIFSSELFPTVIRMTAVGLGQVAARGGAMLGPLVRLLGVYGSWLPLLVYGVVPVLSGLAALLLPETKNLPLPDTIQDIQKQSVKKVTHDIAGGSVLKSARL
assayExplanation: URAT1 uric acid transport activity assay
Format: cell-based, human/rat
conditionLabel: r-h TM1-N; MES pH 5.5; 100 μM 14C-uric acid; read-out: IC50 (uric acid transport)
endpointName: IC50
Remember to quote the unit after the number.

Briefly, IC50 measured for O=C(O)CSc1nnc(Br)n1-c1ccc(C2CC2)c2ccccc12 [lesinurad] : 40 µM

* * *

systemUnderTest: r-F351C rURAT1 point mutant (Rattus norvegicus, UniProt Q3ZAV1, F351C)
Sequence (Q3ZAV1 1-553 F351C): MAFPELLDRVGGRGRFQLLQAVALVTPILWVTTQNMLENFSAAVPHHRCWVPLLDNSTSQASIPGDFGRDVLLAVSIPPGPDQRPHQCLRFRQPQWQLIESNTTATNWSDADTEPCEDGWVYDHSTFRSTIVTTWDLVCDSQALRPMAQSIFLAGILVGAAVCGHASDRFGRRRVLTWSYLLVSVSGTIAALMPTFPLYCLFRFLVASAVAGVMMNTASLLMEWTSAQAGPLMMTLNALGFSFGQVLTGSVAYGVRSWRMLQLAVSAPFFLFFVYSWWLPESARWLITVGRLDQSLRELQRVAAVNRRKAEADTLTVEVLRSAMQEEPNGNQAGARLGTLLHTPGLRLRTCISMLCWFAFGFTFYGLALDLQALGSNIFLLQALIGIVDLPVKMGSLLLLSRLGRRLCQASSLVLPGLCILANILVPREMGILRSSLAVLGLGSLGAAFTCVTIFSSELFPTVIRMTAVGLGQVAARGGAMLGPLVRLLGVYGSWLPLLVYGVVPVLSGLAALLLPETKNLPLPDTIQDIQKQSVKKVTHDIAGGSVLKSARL
assayExplanation: URAT1 uric acid transport activity assay
Format: cell-based
endpointName: pIC50
By convention, pIC50 is the negative base-10 log of a molar concentration.

Field pIC50 (entry CCc1oc2ccccc2c1C(=O)c1cc(Br)c(O)c(Br)c1 [benzbromarone] ) reads 4.62

* * *

systemUnderTest: h-r TM5-N URAT1 chimera (Homo sapiens, UniProt Q96S37, S238A/V233M)
assayExplanation: URAT1 uric acid transport activity assay
conditionLabel: HEPES pH 7.3, 100 μM 14C-uric acid
endpointName: pIC50
API: returns pIC50 as number; meaning -log10 of concentration in mol/L.

Sure, the documented pIC50 for O=C1C(CC[S+]([O-])c2ccccc2)C(=O)N(c2ccccc2)N1c1ccccc1 (stereo not shown) is 4.43

* * *

systemUnderTest: r-N35S/Y365F/M481I rURAT1 triple point mutant (Rattus norvegicus, UniProt Q3ZAV1, M481I/N35S/Y365F)
Construct: hURAT1 and rURAT1 are 553 amino acid proteins with 12 transmembrane segments; expressed in transfected cells; host or cells: HEK-293T
assayExplanation: URAT1 uric acid transport activity assay
Type: cell-based
conditionLabel: r-N35S/Y365F/M481I; MES pH 5.5; 100 μM 14C-uric acid; read-out: IC50 (uric acid transport)
endpointName: IC50 (nM)
Record the value in nM, omitting the unit from your answer.

IC50 reading for O=C(O)CSc1nnc(Br)n1-c1ccc(C2CC2)c2ccccc12 [lesinurad] : 1200

* * *

systemUnderTest: rat URAT1 (rURAT1 WT) (Rattus norvegicus, UniProt Q3ZAV1)
assayExplanation: URAT1 uric acid transport activity assay
Format: cell-based
conditionLabel: rURAT1 WT; MES pH 5.5; 100 μM 14C-uric acid; read-out: IC50 (uric acid transport)
Listing of recorded IC50 by entry.
Answer with a number only, understood to be in mM.

* O=C(O)CSc1nnc(Br)n1-c1ccc(C2CC2)c2ccccc12 [lesinurad] | 0.081

// below: IC50 requested for another compound
IC50 reported for this compound O=c1[nH]c(=O)c2[nH]c(=O)[nH]c2[nH]1 [uric acid] : 2.63

* * *

systemUnderTest: r-N35S/Y365F rURAT1 double point mutant (Rattus norvegicus, UniProt Q3ZAV1, N35S/Y365F)
Construct: expressed in transfected cells; host or cells: HEK-293T
Sequence (Q3ZAV1 1-553 N35S/Y365F): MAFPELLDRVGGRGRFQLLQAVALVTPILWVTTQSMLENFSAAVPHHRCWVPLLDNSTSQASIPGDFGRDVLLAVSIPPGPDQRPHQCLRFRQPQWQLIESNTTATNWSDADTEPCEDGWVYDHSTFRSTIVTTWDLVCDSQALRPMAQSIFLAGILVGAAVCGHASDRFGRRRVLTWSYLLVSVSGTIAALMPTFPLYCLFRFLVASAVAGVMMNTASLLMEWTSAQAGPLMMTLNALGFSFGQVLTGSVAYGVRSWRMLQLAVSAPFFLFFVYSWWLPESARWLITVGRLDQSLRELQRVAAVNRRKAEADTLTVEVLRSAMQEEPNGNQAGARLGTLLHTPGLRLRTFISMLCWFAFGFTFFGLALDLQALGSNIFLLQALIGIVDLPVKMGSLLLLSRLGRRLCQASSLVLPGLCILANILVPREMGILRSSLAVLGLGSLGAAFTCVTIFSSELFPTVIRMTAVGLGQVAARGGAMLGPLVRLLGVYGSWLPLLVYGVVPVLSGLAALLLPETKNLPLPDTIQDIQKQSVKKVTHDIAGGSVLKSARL
assayExplanation: URAT1 uric acid transport activity assay
Assay type: cell-based
endpointName: pIC50
# reply with the number alone; pIC50 is -log10 of concentration in mol/L

Sample CCc1oc2ccccc2c1C(=O)c1cc(Br)c(O)c(Br)c1 ; pIC50 observed: 5.66

* * *

systemUnderTest: r-V25M rURAT1 point mutant (Rattus norvegicus, UniProt Q3ZAV1, V25M)
Construct: expressed in transfected cells; host or cells: HEK-293T
Sequence (Q3ZAV1 1-553 V25M): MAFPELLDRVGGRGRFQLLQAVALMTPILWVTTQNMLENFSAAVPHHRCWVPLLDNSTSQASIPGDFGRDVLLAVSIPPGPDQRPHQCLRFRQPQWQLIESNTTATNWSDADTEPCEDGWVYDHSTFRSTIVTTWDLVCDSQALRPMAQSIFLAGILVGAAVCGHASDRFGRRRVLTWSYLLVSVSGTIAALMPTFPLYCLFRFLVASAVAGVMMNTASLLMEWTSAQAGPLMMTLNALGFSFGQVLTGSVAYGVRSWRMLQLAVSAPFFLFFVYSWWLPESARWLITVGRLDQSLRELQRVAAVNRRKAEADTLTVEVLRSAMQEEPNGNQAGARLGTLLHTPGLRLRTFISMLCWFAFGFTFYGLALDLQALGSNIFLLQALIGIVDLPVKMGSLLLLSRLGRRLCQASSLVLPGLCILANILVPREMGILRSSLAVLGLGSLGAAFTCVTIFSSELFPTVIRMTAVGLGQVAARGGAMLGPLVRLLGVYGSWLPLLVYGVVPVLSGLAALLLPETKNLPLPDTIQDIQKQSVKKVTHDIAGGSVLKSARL
assayExplanation: URAT1 uric acid transport activity assay
Assay type: cell-based
conditionLabel: r-V25M; MES pH 5.5; 100 μM 14C-uric acid; read-out: IC50 (uric acid transport)
endpointName: pIC50
# reply with the number alone; pIC50 is -log10 of concentration in mol/L

r-V25M rURAT1 point mutant (Rattus norvegicus, UniProt Q3ZAV1, V25M) assay, molecule O=C(O)CSc1nnc(Br)n1-c1ccc(C2CC2)c2ccccc12 [lesinurad] , recorded pIC50 = 4.23
